EXPERIMENTAL TARGET: F protein of human metapneumovirus strain JPS02-76 (type B1), on infectious virus (human metapneumovirus, strain JPS02-76 …, UniProt Q6WB98 19-539)
ASSAY NAME: cell-based or functional assay
Listing: IC50, neutralizing activity (hMPV infection of LLC-MK2 cells) of selected binders
VALUE KIND: IC50, neutralizing activity (hMPV infection of LLC-MK2 cells)

- BINDER: "EV046143 (antibody, human IgG1, kappa, V domains shown) VH: QVQLVQSGAEVQKPGSSVKVSCKTSGDTFNNYALSWVRQAPGQGPEWMGRIIPLVEMANYAQKFQGRVTITADKSTTTIYMELSSLRSEDTAMYYCARDGYQGGFPYFFDSWGQGTLVTVSS VL: EVVLTQSPGTLSLSPGERATLSCRASQSVSNYLAWYQQKPGQAPRLLISAASSRATGIPDRFGGSGSGADFTLTISRLEPEDFAVYYCQQYGFSPGTFGQGTKVEIRR"
  ENDPOINT RESULT: "0.46 µg/mL"
- BINDER: "EV046147 (antibody, human IgG1, lambda, V domains shown) VH: QVQLVQSGAEVKKPGASVKVSCKASGYTFSVYGISWVRQAPGHGLEWMGWISAYNGDRGYAQKVQGRITMTTDTSASTAYMELRSLTSDDTAVYYCATTSSGVPGIYWGQGSLVTVSS VL: SYALVQPPSVSVSPGQTARITCFGPALPKKYAYWYQHKSGQAPMLVIYEDTKRPSGIPQRFSGSTSGATATLTIRGAQVEDEADYYCYSTDSSGHERVFGGGTKLTVLG"
  ENDPOINT RESULT: "0.39 µg/mL"
- BINDER: "EV046135 (antibody, human IgG1, lambda, V domains shown) VH: QEQLVESGGDLVKPGGSLRITCAASGFTLSGYALVWVRQAPGRGLEWIADITASSTYINYAASVKGRFTISRDNAQSSLFLQMSSLRADDTGVYFCARLPHLPGFFDLWGRGTLVSVSS VL: QSVLTQPPSVSGAPGQRVTISCTGNSSNIGAGYDVNWYQHLPGTAPKLLISVNTNRPSGVPDRFSGSMSGTSASLAITGLQAEDEADYYCQSYDRRLSGYVFGTGTKVTVLG"
  ENDPOINT RESULT: "0.37 µg/mL"
- BINDER: "EV046124 (antibody, human IgG1, lambda, V domains shown) VH: QVQLVQSGTELKKPGASVKVSCKASGYTFTDYSMHWLRQAPGESLEWMGWVNGGPLDTKYSPTFQDRVSFSRDVFATTAYMDLSSLGPEDTAVYYCARGWGITAYRGDAFDLWGQGTMVIVSS VL: SFVLTQPPSVSVAPGKSARITCGASNIESKSVHWYQQKPGQAPVVVVYDDDDRPSGIPERFSGSNSGNTATLIINRVEVGDEADYYCQVWDSTSDMYVFGAGTKVTVLG"
  ENDPOINT RESULT: "0.29 µg/mL"
- BINDER: "EV046141 (antibody, human IgG1, lambda, V domains shown) VH: QVQLVQSGAEVKKPGASVKVSCKASGYTFADYYIHWLRQAPGQGLEWLGRINPSNSRTTYPQKFQGRVTVTRDTSTSTVYMELSSLRSADTAVYYCARDGLRMGYYYMDVWGKGTTVTVSS VL: QSVLTQPPSVSGAPGQRVTISCTGSSSNIGAGYDVHWYQQIPGTAPKLLIFGNYNRPSGVPDRFSASKSGTSASLAITGLQAEDEAHYYCQSYDTTLDGAVFGGGTKLTVLG"
  ENDPOINT RESULT: "0.74 µg/mL"
- BINDER: "EV046113 (antibody, human IgG1, kappa, V domains shown) VH: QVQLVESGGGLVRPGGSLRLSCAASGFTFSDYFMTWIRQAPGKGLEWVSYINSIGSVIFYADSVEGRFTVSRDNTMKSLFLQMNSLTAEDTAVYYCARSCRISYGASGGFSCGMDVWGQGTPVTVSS VL: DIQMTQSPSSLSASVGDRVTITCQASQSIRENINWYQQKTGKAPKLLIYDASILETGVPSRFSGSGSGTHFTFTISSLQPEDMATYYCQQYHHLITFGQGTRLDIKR"
  ENDPOINT RESULT: "0.68 µg/mL"
- BINDER: "EV046130 (antibody, human IgG1, lambda, V domains shown) VH: QVQLVESGGGVAQPGRSLRLSCAASGFTLSNYGMHWVRQAPGKGLEWVAVIWYDGRNKYYADSVKGRFTISRDDFKNTLDLQMNSLRAEDTAVYYCARDQHAGITMIEDWGQGTLVTVSS VL: QSALTQPPSASGSPGQSVTISCTGTSSDVGYFKYVSWYQQHPGKAPKLLIYEVSKRPSGVPDRFSGSRSGNTASLTVSGLQADDEADYYCGSYAGNNNIIFGGGTKLTVLG"
  ENDPOINT RESULT: "0.23 µg/mL"
- BINDER: "EV046150 (antibody, human IgG1, kappa, V domains shown) VH: RVQLVQSGAEVKKPGSSVRVSCKASGGTFSNYSISWVRQVPGQGLEWMGRIIPILPLSSYPQQFQGRVAITADKSSTTAYMELSSLRIEDTAIYYCARDALRPEGGYYYYYFDVWGTGTTVTVSS VL: EIELTQSPGTLSLSPGERATLSCRANQIIGDTSLAWYQQKPGQAPRLLIFGASSRATGIPDRFSGSGFGSDFTLTITSLEPEDFAVYYCQQYGSSPTFGQGTKVEIKR"
  ENDPOINT RESULT: "0.3 µg/mL"
- BINDER: "EV046136 (antibody, human IgG1, kappa, V domains shown) VH: QVQLVQSGAEMKKPGASVKVSCKASGYTFTDYFIHWVRQAPGQGLEWMGWVNPNSGATNYAQKFQGRVTMTGDTSLSAAYVDLSRLSSDDSAVYYCARDRGLGISSTRNDAFDIWGQGTTVTVSS VL: DIQLTQSPSSLSASVGDRVTITCQPSQGIRNFLNWYQQKPGKAPNLLIYDASNLETGVASRFSGSGSGTHFTLTISSLQPEDIATYFCQQYHSLPLTFGGGTKVEIKR"
  ENDPOINT RESULT: "0.31 µg/mL"
- BINDER: "EV046142 (antibody, human IgG1, lambda, V domains shown) VH: QVQLVQSGAEVKKPGSSVRVSCKASGGTFSTYGINWVRQARGQGLEWMGTVIPTFEKTYYAQGFQGRVTIAADGSKNTVYMELRRLTSEDSAIYFCTRFFTPYCSGGSCYLDLWGPGTLVTVSS VL: QSVLTQPPSVSGAPGQSVTISCAGSSSNIGAGYDVHWYQHLPGTAPRLLIYSNTNRPSGVPDRFSGSKSGASASLAITGLQAEDEADYYCQSYDSGVVFGGGTKLTVLR"
  ENDPOINT RESULT: "0.42 µg/mL"
- BINDER: "EV046116 (antibody, human IgG1, kappa, V domains shown) VH: QVQLQESGPGLVKPSETLSLTCTVSGGSISRDYWSFIRQPAGKGLEWIGRIYHNGDTNYNPSLKSRVTMSQDTSKNQFFLRLRHVTAADTAVYYCAREGSAGTFGQADWGQGTLVIVYS VL: EIVMTQSPATLSVSPGERATLSCRASQSISNNLAWYQQKPGQAPRLLIYGASTRATGIPARFSGGGSGTEFTLTISSLQSEDFAVYYCQQYENWLLYTFGQGTKLEIKR"
  ENDPOINT RESULT: "0.25 µg/mL"
